PROPERTY LABEL: melting point

Study these solved cases before continuing.
>  <COMPOUND>
COc1cc(NC(=O)Nc2cccc3c2C2CC(=O)CCN2C3=O)nc2ccccc12 (stereo not drawn)

>  <melting point>
223 to 225 °C

$$$$
>  <COMPOUND>
Cc1cccc(NC(=O)Nc2cccc3c2C2CC4(CCN2C3=O)SCCS4)n1 (stereo not drawn)

>  <melting point>
154 to 156 °C

$$$$
>  <COMPOUND>
O=C1c2cccc(-n3c(=O)[nH]c4ncccc4c3=O)c2C2CCCCN12 (stereo not drawn)

>  <melting point>
> 290 °C

$$$$
>  <COMPOUND>
O=C(Nc1cccc(Br)n1)Nc1cccc2c1C1CC3(CCN1C2=O)OCCO3 (stereo not drawn)

>  <melting point>
184 to 186 °C

$$$$
>  <COMPOUND>
COc1cc(NC(=O)Nc2cccc3c2C2CC(O)CCN2C3=O)nc2ccccc12 (stereo not drawn)

>  <melting point>
> 260 °C

$$$$

Below: the item to evaluate.
For the compound Cc1cccnc1NC(=O)Nc1cccc2c1C1CC(=O)CCN1C2=O (stereo not drawn) , give its reported melting point.
> 260 °C

###

tested on: HCT 116 (colon); assay: Cytotoxicity on human cells, automated nuclei counting: HCT 116; type: cell-based; conditions: HCT 116 cells, exposed 24 h to 48 h, 0.1 to 25 μM
PROPERTY LABEL: IC50 (µM)
Numbers only; they are read as µM.

>  <MOLECULE>
Cc1cnc(NC(=O)Nc2cccc3c2C2CC4(CCN2C3=O)SCCS4)cn1 (centres unmarked) [Compound 51]

>  <IC50 (µM)>
0.2

$$$$
>  <MOLECULE>
COC1CCN2C(=O)c3cccc(NC(=O)Nc4ccn(C)n4)c3C2C1 (centres unmarked) [Compound 60]

>  <IC50 (µM)>
4

$$$$
>  <MOLECULE>
COc1cc(NC(=O)Nc2cccc3c2C2CC4(CCN2C3=O)SCCS4)nc2ccccc12 (centres unmarked) [Compound 49]

>  <IC50 (µM)>
10

$$$$

Specify IC50 for O=C(Nc1ccc(Br)cn1)Nc1cccc2c1C1CC3(CCN1C2=O)SCCS3 (centres unmarked) [Compound 31] and stop.
1.2

Retrieve IC50 measured for Cc1cc(NC(=O)Nc2cccc3c2C2CCCCN2C3=O)no1 (centres unmarked) [Compound 24] and print it.
2

###

biological target: GSK-3αβ; assay: GSK-3 kinase inhibition (GS-1 substrate); settings: read-out: IC50 μM Kinases GSK3, buffer A, 30° C., 15 μM ATP
PROPERTY LABEL: IC50 (µM)

>  <MOLECULE>
COc1cc(NC(=O)Nc2cccc3c2C2CC(O)CCN2C3=O)nc2ccccc12 (stereo not drawn)

>  <RESULT UNIT>
µM

>  <RESULT>
0.035

$$$$
>  <MOLECULE>
Cc1cc(NC(=O)Nc2cccc3c2C2CCCCN2C3=O)no1 (stereo not drawn)

>  <RESULT UNIT>
µM

>  <RESULT>
0.033

$$$$

###

biological target: CDK5/D25 (Homo sapiens); construct: made in house; experiment: CDK5 kinase inhibition (33P-ATP, histone H1); assay type: biochemical; details: buffer C, 30° C., 15 μM ATP, read-out: IC50 μM Kinases CDK5
Sequence (Q00535 whole entry): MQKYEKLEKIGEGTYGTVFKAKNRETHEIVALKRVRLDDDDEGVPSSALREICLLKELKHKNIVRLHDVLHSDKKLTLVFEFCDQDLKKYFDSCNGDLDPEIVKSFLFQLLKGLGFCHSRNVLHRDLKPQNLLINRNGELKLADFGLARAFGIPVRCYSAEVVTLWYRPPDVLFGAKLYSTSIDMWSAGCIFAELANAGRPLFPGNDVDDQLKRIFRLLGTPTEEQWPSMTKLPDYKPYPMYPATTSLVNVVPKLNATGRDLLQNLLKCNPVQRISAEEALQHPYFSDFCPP
Sequence (Q15078 99-307 partner limits assumed): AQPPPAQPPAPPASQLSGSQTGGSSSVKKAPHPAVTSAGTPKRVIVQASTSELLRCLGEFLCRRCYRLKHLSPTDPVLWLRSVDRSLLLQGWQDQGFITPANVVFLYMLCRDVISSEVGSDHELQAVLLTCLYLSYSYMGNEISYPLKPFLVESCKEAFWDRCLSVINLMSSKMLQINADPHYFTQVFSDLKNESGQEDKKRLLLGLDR
PROPERTY LABEL: IC50 (µM)

Past entries and their recorded results:
>  <COMPOUND>
O=C(Nc1cnccn1)Nc1cccc2c1C1CC3(CCN1C2=O)OCCO3 (stereo not drawn)

>  <RESULT UNIT>
µM

>  <IC50>
7.1

$$$$
>  <COMPOUND>
O=C(Nc1ccc(Br)cn1)Nc1cccc2c1C1CC3(CCN1C2=O)SCCS3 (stereo not drawn)

>  <RESULT UNIT>
µM

>  <IC50>
7.3

$$$$

(1) O=C1c2cccc(NC(=S)Nc3cnccn3)c2C2CCCCN12 (stereo not drawn)
(2) COc1cc(NC(=O)Nc2cccc3c2C2CC(OC)CCN2C3=O)nc2ccccc12 (stereo not drawn)
(3) O=C(Nc1ccncn1)Nc1cccc2c1C1CCCCN1C2=O (stereo not drawn)
With regard to IC50, arrange the entries in ascending order, please. # format: label list in the order the request specifies
3, 2, 1
(3: 1.5 µM, 2: 8.5 µM, 1: 26 µM)

###

This listing pairs compounds with measured IC50.
target: CDK5/D25 (Homo sapiens); construct: made in house; assay: CDK5 kinase inhibition (33P-ATP, histone H1); type: biochemical; conditions: buffer C, 30° C., 15 μM ATP, read-out: IC50 μM Kinases CDK5

>  <COMPOUND>
O=C1c2cccc(NC(=S)Nc3ncccn3)c2C2CCCCN12 (stereo not drawn)

>  <PROPERTY LABEL>
IC50

>  <RESULT>
> 10 µM

$$$$
>  <COMPOUND>
O=C1CCN2C(=O)c3cccc(NC(=O)Nc4cnccn4)c3C2C1 (stereo not drawn)

>  <PROPERTY LABEL>
IC50

>  <RESULT>
> 10 µM

$$$$
>  <COMPOUND>
O=C(Nc1cccc(Br)n1)Nc1cccc2c1C1CC3(CCN1C2=O)OCCO3 (stereo not drawn)

>  <PROPERTY LABEL>
IC50

>  <RESULT>
> 10 µM

$$$$
>  <COMPOUND>
O=C(Nc1ccccn1)Nc1cccc2c1C1C[C@@H](O)CCN1C2=O (stereo partly drawn)

>  <PROPERTY LABEL>
IC50

>  <RESULT>
2.1 µM

$$$$

Annotate the compound O=C1CCN2C(=O)c3cccc(NC(=O)Nc4ccccn4)c3C2C1 (stereo not drawn) with its measured IC50.
3.6 µM

Provide IC50 value for the following compound: COc1cc(NC(=O)Nc2cccc3c2C2CC4(CCN2C3=O)OCCO4)nc2ccccc12 (stereo not drawn)
> 10 µM

Read off the recorded IC50 for O=C1c2cccc(NC(=S)Nc3ncccc3Br)c2C2CC3(CCN12)SCCS3 (stereo not drawn)
> 10 µM

For the compound O=C(Nc1ncccn1)Nc1cccc2c1C1CCCCN1C2=O (stereo not drawn) , report IC50.
> 10 µM

Provide IC50 value for the following compound: Cc1cccnc1NC(=O)Nc1cccc2c1C1CC(O)CCN1C2=O (stereo not drawn)
0.63 µM

Consider the compound O=C1c2cccc(NC(=S)Nc3cc[nH]n3)c2C2CC3(CCN12)SCCS3 (stereo not drawn) and give its recorded IC50.
> 10 µM

Return reported IC50. Input compound: O=C(Nc1ccccn1)Nc1cccc2c1C1CC3(CCN1C2=O)OCCO3 (stereo not drawn)
11 µM

Complete the entry with IC50 for O=C1c2cccc(NC(=S)Nc3cnccn3)c2C2CC3(CCN12)SCCS3 (stereo not drawn)
> 10 µM

Consider the compound O=C(Nc1cc(O)c2ccccc2n1)Nc1cccc2c1C1CC(O)CCN1C2=O (stereo not drawn) . State its measured IC50.
> 10 µM

Using known records, supply IC50 for COc1cc(NC(=O)Nc2cccc3c2C2CC4(CCN2C3=O)SCCS4)nc2ccccc12 (stereo not drawn)
> 10 µM

Give me measured IC50, please, for this compound: Cn1ccc(NC(=O)Nc2cccc3c2C2CC4(CCN2C3=O)SCCS4)n1 (stereo not drawn)
≥ 10 µM

###

PROPERTY LABEL: melting point (°C)

>  <COMPOUND>
O=C1CCN2C(=O)c3cccc(-n4c(=O)[nH]c5cnccc5c4=O)c3C2C1 (stereo not drawn) [Compound 99]

>  <PROPERTY LABEL>
melting point

>  <RESULT UNIT>
°C

>  <RESULT>
230

$$$$
>  <COMPOUND>
O=C1c2cccc(NC(=S)Nc3cc[nH]n3)c2C2CC3(CCN12)SCCS3 (stereo not drawn) [Compound 71]

>  <PROPERTY LABEL>
melting point

>  <RESULT UNIT>
°C

>  <RESULT>
185

$$$$
>  <COMPOUND>
O=C1c2cccc(NC(=S)Nc3ncccc3Br)c2C2CCCCN12 (stereo not drawn) [Compound 72]

>  <PROPERTY LABEL>
melting point

>  <RESULT UNIT>
°C

>  <RESULT>
180

$$$$
>  <COMPOUND>
Nc1ccn(C(=O)Nc2cccc3c2C2CCCCN2C3=O)n1 (stereo not drawn) [Compound 78]

>  <PROPERTY LABEL>
melting point

>  <RESULT UNIT>
°C

>  <RESULT>
166

$$$$
>  <COMPOUND>
O=C1c2cccc(NC(=S)Nc3ncccc3Br)c2C2CC3(CCN12)SCCS3 (stereo not drawn) [Compound 74]

>  <PROPERTY LABEL>
melting point

>  <RESULT UNIT>
°C

>  <RESULT>
215

$$$$

###

system: fibroblast; experiment: Cytotoxicity on human cells, automated nuclei counting: fibroblast; assay type: cell-based; details: exposed 24 h to 48 h, 0.1 to 25 μM
PROPERTY LABEL: IC50 (µM)
Write down the numeric answer in µM and omit the unit.

>  <COMPOUND>
O=C(Nc1csc(-c2ccncc2)n1)Nc1cccc2c1C1CCCCN1C2=O (stereo not drawn) [Compound 37]

>  <IC50, µM>
3

$$$$
>  <COMPOUND>
COC1CCN2C(=O)c3cccc(NC(=O)Nc4ccccn4)c3C2C1 (stereo not drawn) [Compound 53]

>  <IC50, µM>
3

$$$$

Now consider the entry below.
Quickly give me recorded IC50 for COC1CCN2C(=O)c3cccc(NC(=O)Nc4ncccc4C)c3C2C1 (stereo not drawn) [Compound 57]
3

Taken from patent US20120095022A1.
